test system: GABAAR; assay: GABA-induced whole-cell currents in cultured hippocampal neurons (voltage clamp); format: cell-based, rat; conditions: 0.5 μM GABA; read-out: EC50 for potentiation of GABA current (Hill fit)
quantity.name: EC50
Lab note: write values as number then unit, every time.

Request: Quick one: EC50 for C[C@H](CCCOS(=O)(=O)O)[C@H]1CC[C@H]2[C@@H]3CC[C@H]4C[C@@H](O)CC[C@]4(C)[C@H]3CC[C@]12C [MQ-221] ?
Result: 2.6 µM

# credit: patent US20220396597A1
